Target: Left-right determination factor 2 (Homo sapiens) (UniProt O00292)
Sequence (O00292 whole entry, looked up): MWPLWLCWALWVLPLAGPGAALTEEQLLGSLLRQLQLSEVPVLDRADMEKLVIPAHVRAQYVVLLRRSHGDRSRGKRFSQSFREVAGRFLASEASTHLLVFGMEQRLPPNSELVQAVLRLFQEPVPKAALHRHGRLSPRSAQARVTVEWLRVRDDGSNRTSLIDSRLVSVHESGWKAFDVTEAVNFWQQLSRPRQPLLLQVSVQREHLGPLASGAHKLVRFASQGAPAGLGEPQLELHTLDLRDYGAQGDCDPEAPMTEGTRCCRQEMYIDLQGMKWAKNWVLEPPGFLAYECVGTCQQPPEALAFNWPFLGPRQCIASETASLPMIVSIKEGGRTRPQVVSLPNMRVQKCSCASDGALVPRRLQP
Assay: LEFTY2 binders on small-molecule microarrays, primary screen, biochemical, small-molecule microarray, 635 nm fluorescence scan (AID 1110)
Settings: LEFTY2 binding, higher = more signal
The entries below are paired with their reported composite z-score.
Lab note: jot down the number only; don't add units.

**Q:** Returns the measured composite z-score for the input compound. Input: `C=C(/C(=C/C[C@H](OC(C)=O)c1cccc(OCCO)c1)c1cc(C(=O)OC)ccc1OC)C(C)C`
**A:** -0.516

**Q:** One more compound: C=CCC(OC(C)=O)[C@@H]1[C@@H](N(Cc2ccc(-c3cccc(C(F)(F)F)c3)o2)C(=O)c2ccc(-c3ccccc3)cc2)c2cc(OCCCO)ccc2N1C(=O)Cc1ccc(OC)cc1 (stereo partly specified)
**A:** -0.236

**Q:** One more compound: `C[N+](C)(C)CCCCNC(=O)[C@@H]1C[C@@H]2C(=O)NCC(=O)N2[C@@H]1c1cccc(OCCO)c1`
**A:** 1.08

**Q:** One more compound: `C=C(CCCC)/C(=C/C[C@@H](OC(=O)c1ccncc1)c1ccc(OCCO)cc1)c1cnc2ccccc2c1`
**A:** 0.737

Continuing:
**Q:** Returns the measured composite z-score for the input compound. Input: `C=CCN1C(=O)[C@@]2(O[C@@H](CCn3cc(CCO)nn3)[C@H]([Si](C)(C)c3ccc(OC)cc3)[C@H]2C)c2cc(N3C(=O)c4cccc5cccc3c45)ccc21`
**A:** -0.165

**Q:** One more compound: `CC(=O)NCCCC[C@@H]1NC(=O)[C@@H]2C[C@H](C(=O)O)[C@H](c3cccc(OCCO)c3)N2C1=O`
**A:** 1.46

**Q:** One more compound: `COC(=O)[C@@]1(CCC(=O)OC(C)(C)C)COC(c2ccc(OCCCO)cc2)=N1`
**A:** -1.57

**Q:** One more compound: `C=CCNC(=O)[C@H]1[C@@H]2C(=O)O[C@@H](c3ccccc3)[C@@H](c3ccccc3)N2[C@@H](c2ccccc2OCCO)[C@]12C(=O)N(C(=O)OCCOC)c1ccc(C#CCCO)cc12`
**A:** 1.06

**Q:** One more compound: `COc1ccc(C#Cc2ccc3c(c2)[C@]2(C(=O)N3)[C@H](c3ccc(O)cc3)N3[C@H](c4ccccc4)[C@H](c4ccccc4)OC(=O)[C@H]3[C@@H]2C(N)=O)cc1`
**A:** -1.07

**Q:** One more compound: `O=C(O)[C@H]1C[C@H]2C(=O)N[C@@H](Cc3ccccc3)C(=O)N2[C@H]1c1ccc(O)cc1`
**A:** -0.307

**Q:** One more compound: C=CCC(OC(C)=O)[C@@H]1[C@@H](N(Cc2cc3ccccc3o2)C(=O)c2ccc(-c3ccccc3)cc2)c2cc(OCCCO)ccc2N1C(=O)c1ccc(-c2ccccc2)cc1 (stereo partly specified)
**A:** 0.0559

**Q:** One more compound: `C=CCN1C(=O)[C@@]2(O[C@@H](CCn3cc(CCO)nn3)[C@H]([Si](C)(C)c3ccc(OC)cc3)[C@H]2C)c2cc(NC(=O)c3ccc(OC)cc3)ccc21`
**A:** 0.415

**Q:** One more compound: `COC(=O)c1c2oc(c1C(=O)OC)C(=O)N[C@@H](C(C)C)Cn1nncc1C1(CCCCC1)NC(=O)N[C@H](CO)CC2`
**A:** -0.0834

**Q:** One more compound: `CCOC(=O)C[C@H]1[C@H](OC(=O)c2cc3ccccc3oc2=O)[C@@H](NC(=O)c2ccccc2)c2cc(OCCCO)ccc2N1C(=O)Cc1ccc(OC)cc1`
**A:** 0.357

**Q:** One more compound: `O=C(NCC(F)(F)F)[C@@H]1c2ccccc2C(=O)N(C2Cc3ccccc3C2)[C@H]1c1ccc(CO)cc1`
**A:** -1.21

**Q:** One more compound: CC(=O)OC(C/C=C\B1OC(C)(C)C(C)(C)O1)c1ccccc1 (stereo unspecified)
**A:** 0.149

* * *

System: Chordin-like protein 2 (CHRDL2)
Test: CHRDL2 small-molecule binders, primary screen, biochemical, small-molecule microarray, 635 nm fluorescence (AID 1126);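 note: printed compound slides probed with Chrdl2 protein at 4 µg/mL for 1 h at 4 C; score merges 667 nm emission intensity with signal to noise over three replicate slides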
Details: small-molecule microarray binding, fluorescence 635 nm; higher = more signal
measurementType: composite z-score
Lab note: jot down the number only; don't add units.

**Q:** Returns the measured composite z-score for the input molecule. Input: `COC(=O)C(CC#Cc1ccc2c(c1)[C@]1(C(=O)N2)[C@H](C(N)=O)[C@H]2C(=O)O[C@H](c3ccccc3)[C@H](c3ccccc3)N2[C@@H]1c1ccc(O)cc1)C(=O)OC`
**A:** -1.33

**Q:** One more molecule: C#CCN1C(C(=O)OCC)OC[C@H]1c1ccccc1 (stereo not given in full)
**A:** 0.602

**Q:** One more molecule: CC(C)C[C@@H]1NC(=O)[C@@]23C(=O)N[C@@H](Cc4ccccc4)C2[C@H](C)[C@@]2(C)O[C@H]2C3/C=C/CC/C=C/CNC(=O)[C@@H](C)NC1=O (stereo not given in full)
**A:** 0.906

**Q:** One more molecule: `C=CCN1C(=O)[C@@]2(O[C@@H](CCn3cc(CCO)nn3)[C@H]([Si](C)(C)c3ccc(OC)cc3)[C@H]2C)c2cc(N3C(=O)c4cccc5cccc3c45)ccc21`
**A:** 0.0449

**Q:** One more molecule: `O=C(NC1CC1)[C@@H]1c2ccccc2C(=O)N(Cc2ccccc2C(F)(F)F)[C@H]1c1ccc(CO)cc1`
**A:** 0.102

Switching to the query record.
**Q:** Returns the measured composite z-score for the input molecule. Input: CC(C)C[C@@H]1NC(=O)[C@@]23C(=O)N[C@@H](Cc4ccccc4)C2[C@H](C)[C@@]2(C)O[C@H]2C3/C=C/C/C=C\CNC(=O)[C@H](Cc2ccccc2)NC1=O (stereo not given in full)
**A:** -0.0794

* * *

Experiment: MM1S myeloma cell viability, profiling panel, resazurin fluorescence, basal, 24 h, PK04 Diversity Set (AID 1174);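 note: MM1S multiple myeloma cell line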
Settings: higher = more signal, called active from +8 up or from −8 down
z-score of 0.8 or higher: condition met. Under 0.8: condition not met.

Example results:
**Q:** State whether the measured z-score reaches 0.8, counting equality as reaching it, for `COCCOC(=O)N1C(=O)[C@@]2(c3cc(C#CC4(O)CCCCCC4)ccc31)[C@H](c1ccccc1OCCO)N1[C@H](c3ccccc3)[C@H](c3ccccc3)OC(=O)[C@H]1[C@@H]2C(=O)Nc1nc2ccccc2s1`
**A:** condition not met

**Q:** One more compound: `CC(C)N1C(=O)c2ccccc2[C@@H](C(=O)NCc2ccccc2)[C@@H]1c1ccc(CO)cc1`
**A:** condition met

**Q:** One more compound: COC(=O)C1=CC(CCCO)=CC(C2CC2)N(Cc2cc3c(cc2Br)OCO3)C=C1C(=O)OC (stereo not drawn)
**A:** condition met

Continuing:
**Q:** State whether the measured z-score reaches 0.8, counting equality as reaching it, for `C=CCN1C(=O)[C@@]2(O[C@@H](CCn3cc(CCO)nn3)[C@H]([Si](C)(C)c3ccc(OC)cc3)[C@H]2C)c2cc(N3C(=O)c4cccc5cccc3c45)ccc21`
**A:** condition not met

**Q:** One more compound: `CCOC(=O)C[C@H]1[C@H](OC(=O)c2ccc(-c3ccccc3)cc2)[C@@H](NC(=O)c2ccccc2)c2cc(OCCCO)ccc2N1C(=O)c1ccccc1`
**A:** condition met

**Q:** One more compound: `C=C(C1=CCN(S(=O)(=O)c2ccc(C)cc2)C1)[C@@H](OC(C)=O)[C@@H]1CCCN1S(=O)(=O)c1ccccc1[N+](=O)[O-]`
**A:** condition not met

**Q:** One more compound: CC(CO)N1C(=O)[C@@H]2C3C(=O)OCCC/C=C\[C@H]3OC23C=CCN(Cc2ccccc2)C(=O)[C@@H]13 (stereo partly drawn)
**A:** condition not met

* * *

Assay: IGROV1 ovarian cancer cell cytotoxicity, dose response, PAX8 inhibitor project, plate reader, dry powder samples (AID 743043);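 note: more negative means fewer viable cells or more cytotoxicity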
Settings: series mostly up to 35 µM
Entries with a potency or affinity are not part of this list. Records with an inconclusive call do not appear. Activity calls are given as the source filed them. No rule for the calls is given here.
measurementType: outcome

**Q:** Returns the measured outcome for the input compound. Input: `C[C@H]1CN([C@@H](C)CO)C(=O)Cc2cc(NC(=O)NC3CCCCC3)ccc2O[C@@H]1CN(C)Cc1ccc(-c2ccccc2)cc1`
**A:** inactive

**Q:** One more compound: `C[C@@H]1CN([C@@H](C)CO)C(=O)c2cc(NC(=O)Nc3ccc4c(c3)OCO4)ccc2O[C@@H]1CN(C)C(=O)Nc1ccc(C(F)(F)F)cc1`
**A:** inactive

**Q:** One more compound: `C[C@@H]1CN([C@H](C)CO)C(=O)c2cc(NC(=O)Nc3ccc(F)cc3)ccc2O[C@@H](C)CCCCO[C@@H]1CN(C)Cc1ccc2c(c1)OCO2`
**A:** inactive

Data provenance is PubChem BioAssay.
